System: LAMA-84
Assay: cell viability (% survival relative to DMSO control, bortezomib = 0%); higher = less cytotoxic
Conditions: 10000 nM; 72 h
property-measured: cell viability (%)
The figure you give is taken to be in %; do not add the unit.

Endpoint output: cell viability of O=C1c2cc([N+](=O)[O-])ccc2-n2c1nc1ccccc1c2=O [GNF-Pf-3777] . Value? 32.8

Also, Nc1nc(Cl)nc2c1ncn2[C@H]1C[C@H](O)[C@@H](CO)O1 [Cladribine] please. 1.72

O=C(NNc1ccccc1)c1ccncc1 [PluriSln 1] , same question. 39.9

Now try NC(=O)c1cccc(-c2cccc(OC(=O)NC3CCCCC3)c2)c1 [URB-597] . 96.1

Then this compound: CC(C)(C#N)c1cc(Cn2cncn2)cc(C(C)(C)C#N)c1 [Anastrozole] 97.7
